The measurements presented in this section are drawn from ChEMBL document CHEMBL4371069.

# System Tested: Epidermal growth factor receptor (Homo sapiens)
# Sequence (P00533 whole entry): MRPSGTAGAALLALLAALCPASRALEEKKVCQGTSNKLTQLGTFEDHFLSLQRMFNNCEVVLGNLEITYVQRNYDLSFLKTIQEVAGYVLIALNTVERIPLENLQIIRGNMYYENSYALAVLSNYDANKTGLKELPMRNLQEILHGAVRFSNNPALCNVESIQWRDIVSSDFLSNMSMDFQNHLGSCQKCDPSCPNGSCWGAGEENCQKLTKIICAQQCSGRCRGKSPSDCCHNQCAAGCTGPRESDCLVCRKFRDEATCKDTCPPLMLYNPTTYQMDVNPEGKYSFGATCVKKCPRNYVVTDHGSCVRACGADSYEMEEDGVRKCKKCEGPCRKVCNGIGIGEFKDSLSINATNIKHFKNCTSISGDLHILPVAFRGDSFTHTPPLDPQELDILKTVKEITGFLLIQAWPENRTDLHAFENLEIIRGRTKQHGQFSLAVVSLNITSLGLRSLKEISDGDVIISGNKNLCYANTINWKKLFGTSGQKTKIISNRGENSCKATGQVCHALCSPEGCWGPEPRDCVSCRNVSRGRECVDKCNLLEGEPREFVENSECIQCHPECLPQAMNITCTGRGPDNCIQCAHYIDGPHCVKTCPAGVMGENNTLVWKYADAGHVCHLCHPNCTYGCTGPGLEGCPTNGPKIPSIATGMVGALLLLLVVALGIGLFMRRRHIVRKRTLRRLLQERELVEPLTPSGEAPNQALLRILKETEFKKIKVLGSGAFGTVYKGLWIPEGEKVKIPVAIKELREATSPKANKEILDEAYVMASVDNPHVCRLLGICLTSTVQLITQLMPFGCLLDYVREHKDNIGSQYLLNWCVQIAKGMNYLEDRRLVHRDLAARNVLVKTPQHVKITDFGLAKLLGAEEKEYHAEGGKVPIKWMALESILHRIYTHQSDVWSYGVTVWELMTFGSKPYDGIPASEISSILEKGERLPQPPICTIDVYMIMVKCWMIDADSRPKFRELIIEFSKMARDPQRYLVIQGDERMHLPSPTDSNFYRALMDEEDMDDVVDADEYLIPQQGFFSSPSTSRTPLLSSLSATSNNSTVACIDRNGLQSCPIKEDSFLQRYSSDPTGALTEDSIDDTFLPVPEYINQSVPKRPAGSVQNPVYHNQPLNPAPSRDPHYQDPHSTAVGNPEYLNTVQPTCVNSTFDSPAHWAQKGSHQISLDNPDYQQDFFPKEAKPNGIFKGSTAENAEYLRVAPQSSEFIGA
IC50 listing for selected molecules.
# value in nM; strip the unit string

Answered cases to consult:
• C=CC(=O)Nc1cc2c(Nc3ccc(F)c(Cl)c3)ncnc2cc1OCc1cn(CCCN2CCOCC2)nn1 = 12
• C=CC(=O)Nc1cc2c(Nc3ccc(F)c(Cl)c3)ncnc2cc1OCc1cn(CCCO)nn1 = 12
• C=CC(=O)Nc1cc2c(Nc3ccc(F)c(Cl)c3)ncnc2cc1OCc1cn(Cc2ccccc2)nn1 = 39
• C=CC(=O)Nc1cc2c(Nc3ccc(F)c(Cl)c3)ncnc2cc1OCc1cn(Cc2cccc(F)c2)nn1 = 68

Next, consider the following molecule.
Query string: Complete the entry with IC50 for "C=CC(=O)Nc1cc2c(Nc3ccc(F)c(Cl)c3)ncnc2cc1OCc1cn(Cc2ccc(C)cc2)nn1"
Result string: 105
